TARGET_ENTITY: T1, human CD276 protein (human, UniProt Q5ZPR3 29-534)
T1 construct: whole, on cells; for SKOV3 and the other cancer lines the protein is the cells' own; also called B7-H3; B7H3
T1 sequence (looked up): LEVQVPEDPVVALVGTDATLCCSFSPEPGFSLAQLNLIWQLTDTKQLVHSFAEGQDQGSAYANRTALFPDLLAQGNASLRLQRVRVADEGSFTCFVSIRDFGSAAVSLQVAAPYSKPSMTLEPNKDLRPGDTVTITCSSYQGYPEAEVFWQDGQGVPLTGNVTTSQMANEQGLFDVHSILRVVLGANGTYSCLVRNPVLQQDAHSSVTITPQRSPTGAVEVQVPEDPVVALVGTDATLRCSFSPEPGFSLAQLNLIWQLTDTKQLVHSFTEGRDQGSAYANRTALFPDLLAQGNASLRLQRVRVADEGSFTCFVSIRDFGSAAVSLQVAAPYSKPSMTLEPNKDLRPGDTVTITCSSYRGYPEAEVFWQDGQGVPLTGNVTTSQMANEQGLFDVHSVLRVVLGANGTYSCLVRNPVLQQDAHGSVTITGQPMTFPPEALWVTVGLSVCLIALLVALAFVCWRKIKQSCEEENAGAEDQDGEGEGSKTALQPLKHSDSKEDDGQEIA
ASSAY_PROCEDURE: FACS on SKOV3 cells
ENDPOINT_NAME: EC50 (µg/mL)
Output spec: scalar in µg/mL, unitless text.

20-C5-D7-D3 (human IgG1 chimeric antibody) (antibody, V domains shown, human IgG1 chimeric antibody of the mouse clone) VH: EVQLVESGGDLVKPGGSLKLSCAASGFTFRSYGMSWVRQTPDKRLEWVATISGGGNYTYYPDSVKGRFTISRDNAKNTLYLQMSSLKSEDTAMYYCARHEGLPLDYWGQGTTLTVSS VL: DIQMTQSPASLSASVGETVTITCRASENIYSYLAWYQQKQGKSPQLLVYNAKTLAEGVPSRFSGSGSGTQFSLKINSLQPEDFGNFYCQHHYGTPTWTFGGGTKLEIK    0.941
16-G3-D10-C10 (human IgG1 chimeric antibody) (antibody, V domains shown, human IgG1 chimeric antibody of the mouse clone) VH: QIQLVQSGPELKKPGETVKISCKASGYTFRNYGMNWVKQGPGKDLKWMGWINPYTGEPTYIGDFKGRFAFSLETSANSAYLQINNLNNEDMATYFCARDDGYWYTMDYWGQGTSVTVSS VL: DVVMTQTPPSLPVSLGDQASIPCRSSQSLVHSNGITYLHWYLQKPGQSPKLLIYKVSNRFSGVPDRFSGSGSGTDFTLKISRVEAEDLGVYFCSQSTHVPWTFGGGTKLEIK    1.31
9-G2-H6-E4 (human IgG1 chimeric antibody) (antibody, V domains shown, human IgG1 chimeric antibody of the mouse clone) VH: EVQLQQSGPDLVKPGASVKISCKASGYSFTGYFMNWVKQRHGKSLEWIGYINPNNGDTIYNQKFKGKATLTVDKSSSTAHMELLSLTSEDSAVYYCGRGGLPFGALDYWGQGTSVTVSS VL: DIVMSQSPSSLAVSVGEKVNMSCKSSQSLLYSRNQKNYLAWNQQKPGQSPKLLIYWASARESGVPDRFTGSGSGTDFTLTISSVKAEDLAAYYCQQYHSYPYTFGGGTKLELK    3.66

Tell us which EC50 value is on record for MGC018 (antibody, V domains shown) VH: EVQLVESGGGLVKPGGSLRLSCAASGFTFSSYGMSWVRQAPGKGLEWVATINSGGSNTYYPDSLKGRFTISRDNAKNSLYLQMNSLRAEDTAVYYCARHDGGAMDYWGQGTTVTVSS VL: DIQMTQSPSSLSASVGDRVTITCRASESIYSYLAWYQQKPGKAPKLLVYNTKTLPEGVPSRFSGSGSGTDFTLTISSLQPEDFATYYCQHHYGTPPWTFGQGTRLEIKR 0.385

Tell us which EC50 value is on record for 14-E7-G9-D4 (human IgG1 chimeric antibody) (antibody, V domains shown, human IgG1 chimeric antibody of the mouse clone) VH: EVQLQQSGPELVKPGASVKMSCKASGYTFTNYIMHWVKQKPGQGLEWIGYINPYNDGIKYNEKFKGKATLTSDKSSSTAYMELSSLTSEDSAVYYCTRWGNYVFYYTMDYWGQGTSVTVSS VL: QIVLSQSPAILSASPGEKVTMTCRASSSVSYMHWYQQKPGSSPKPWIYATSNLASGVPARFSGSGSGTSYSLTISRMEAEDAATYYCQQWSGNPPLTFGAGTKLELK 1.62
